target: MDR1 (P-glycoprotein, ABCB1) (Homo sapiens); assay: TP_TRANSPORTER: increase in Rhodamine 123 intracellular accumulation (R123: 150 uM, Bepridil: 5 ug/mL) in MDR1-expressing NIH3T3 cells; assay type: functional, cell-based; conditions: mouse, probe Rhodamine 123 (150 uM)
Sequence (P08183 whole entry): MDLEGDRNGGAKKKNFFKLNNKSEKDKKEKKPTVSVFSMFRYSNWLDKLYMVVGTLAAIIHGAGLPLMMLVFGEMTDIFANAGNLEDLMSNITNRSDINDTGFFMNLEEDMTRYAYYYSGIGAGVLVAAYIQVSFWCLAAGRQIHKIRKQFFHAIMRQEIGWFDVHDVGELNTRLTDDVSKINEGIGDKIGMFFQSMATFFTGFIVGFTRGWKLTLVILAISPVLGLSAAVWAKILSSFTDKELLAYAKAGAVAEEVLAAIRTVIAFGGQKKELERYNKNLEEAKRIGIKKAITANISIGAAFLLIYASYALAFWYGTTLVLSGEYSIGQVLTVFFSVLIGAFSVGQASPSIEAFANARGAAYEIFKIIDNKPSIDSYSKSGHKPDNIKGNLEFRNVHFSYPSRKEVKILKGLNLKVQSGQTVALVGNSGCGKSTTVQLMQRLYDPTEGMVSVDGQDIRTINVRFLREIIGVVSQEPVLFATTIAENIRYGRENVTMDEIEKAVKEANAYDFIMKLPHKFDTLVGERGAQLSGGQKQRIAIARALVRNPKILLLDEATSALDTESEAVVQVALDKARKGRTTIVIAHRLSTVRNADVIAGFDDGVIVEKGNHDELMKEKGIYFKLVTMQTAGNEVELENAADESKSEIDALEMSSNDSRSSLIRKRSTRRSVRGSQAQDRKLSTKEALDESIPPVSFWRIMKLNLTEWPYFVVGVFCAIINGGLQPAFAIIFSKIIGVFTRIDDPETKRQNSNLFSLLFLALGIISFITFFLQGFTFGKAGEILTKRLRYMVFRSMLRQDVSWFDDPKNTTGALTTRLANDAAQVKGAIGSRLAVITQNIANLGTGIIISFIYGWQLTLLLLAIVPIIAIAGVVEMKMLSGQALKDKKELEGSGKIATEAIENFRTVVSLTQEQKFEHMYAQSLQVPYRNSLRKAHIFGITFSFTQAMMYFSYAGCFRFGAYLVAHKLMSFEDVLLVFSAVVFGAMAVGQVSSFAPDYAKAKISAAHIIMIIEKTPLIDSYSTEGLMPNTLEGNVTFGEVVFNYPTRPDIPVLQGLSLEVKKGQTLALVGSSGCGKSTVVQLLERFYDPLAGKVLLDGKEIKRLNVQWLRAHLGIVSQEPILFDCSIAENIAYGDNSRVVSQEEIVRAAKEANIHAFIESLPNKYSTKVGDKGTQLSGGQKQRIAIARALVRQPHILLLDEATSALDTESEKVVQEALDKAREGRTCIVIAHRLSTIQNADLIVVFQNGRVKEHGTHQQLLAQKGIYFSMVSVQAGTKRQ

>  <compound>
CC(C)COCC(CN(Cc1ccccc1)c1ccccc1)N1CCCC1 (stereo unspecified) [BEPRIDIL]

>  <inhibition at 5 ug/mL>
100%

$$$$
